Measured IC50, listed per entry.
- target-under-test: p97 (Homo sapiens, UniProt P55072)
- Sequence (P55072 2-806 limits assumed): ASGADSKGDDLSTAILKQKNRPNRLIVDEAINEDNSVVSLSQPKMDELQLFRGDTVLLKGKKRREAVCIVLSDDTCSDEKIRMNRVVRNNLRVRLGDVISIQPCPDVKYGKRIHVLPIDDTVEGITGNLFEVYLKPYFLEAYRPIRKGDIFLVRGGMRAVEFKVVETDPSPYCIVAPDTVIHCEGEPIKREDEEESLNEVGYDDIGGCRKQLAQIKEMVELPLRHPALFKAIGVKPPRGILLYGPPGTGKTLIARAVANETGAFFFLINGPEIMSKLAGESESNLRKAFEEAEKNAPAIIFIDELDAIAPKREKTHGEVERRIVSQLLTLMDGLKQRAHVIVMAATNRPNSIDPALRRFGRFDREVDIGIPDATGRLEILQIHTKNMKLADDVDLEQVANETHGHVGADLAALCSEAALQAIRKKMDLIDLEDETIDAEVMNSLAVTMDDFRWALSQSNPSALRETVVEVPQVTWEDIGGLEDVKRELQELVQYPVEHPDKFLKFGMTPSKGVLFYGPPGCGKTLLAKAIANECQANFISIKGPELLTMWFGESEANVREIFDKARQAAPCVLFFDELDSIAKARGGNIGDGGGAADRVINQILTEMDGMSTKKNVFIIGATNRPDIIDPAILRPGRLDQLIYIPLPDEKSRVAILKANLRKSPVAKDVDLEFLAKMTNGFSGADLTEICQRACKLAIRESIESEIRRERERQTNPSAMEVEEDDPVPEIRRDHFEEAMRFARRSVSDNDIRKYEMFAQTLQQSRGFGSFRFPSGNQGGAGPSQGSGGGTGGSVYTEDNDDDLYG
- experiment-notes: p97 ATPase assay (Kinase Glo Plus; biomol green for compounds that interfere with luciferase)
- Format: biochemical
- particulars: p97 ATPase assay

| molecule | measurement-qualifier | IC50 / µM |
| --- | --- | --- |
| COc1ccc(Nc2nc(N3CCN(c4ccc([N+](=O)[O-])cc4)CC3)nc3ccccc23)c(OC)c1 | = | 43 |
| COc1ccc(Nc2nc(N3CCN(S(=O)(=O)c4ccc(C)cc4)CC3)nc3ccccc23)cc1 | = | 22 |
| Brc1ccccc1Nc1nc(NCc2ccccc2)c2ccccc2n1 | = | 64 |
| Brc1ccc2c(NCc3ccccc3)nc(NCc3ccccc3)nc2c1 | = | 22 |
| COc1cccc2c(NCc3ccccc3N(C)C)nc(N3CCOc4ccccc43)nc12 | = | 47 |
| CC(Nc1nc(N2CCOCC2)nc2ccccc12)c1ccccc1 (stereo not shown) | = | 34 |
| Clc1cccc(Nc2nc(Nc3ccccc3)c3ccccc3n2)c1 | = | 34 |
| Clc1ccccc1-c1nc(N2CCCc3ccccc32)c2ccccc2n1 | > | 30 |
| Clc1ccccc1Nc1nc(NCc2ccccc2)c2ccccc2n1 | = | 69 |
| COc1ccc(-c2nc(NCc3ccccc3)c3ccc(Cl)cc3n2)cc1 | = | 25 |

Reference for the values: patent US20110288082A1
